- Tested Target: S1P1/EDG1 (Homo sapiens)
- Sequence (P21453 whole entry): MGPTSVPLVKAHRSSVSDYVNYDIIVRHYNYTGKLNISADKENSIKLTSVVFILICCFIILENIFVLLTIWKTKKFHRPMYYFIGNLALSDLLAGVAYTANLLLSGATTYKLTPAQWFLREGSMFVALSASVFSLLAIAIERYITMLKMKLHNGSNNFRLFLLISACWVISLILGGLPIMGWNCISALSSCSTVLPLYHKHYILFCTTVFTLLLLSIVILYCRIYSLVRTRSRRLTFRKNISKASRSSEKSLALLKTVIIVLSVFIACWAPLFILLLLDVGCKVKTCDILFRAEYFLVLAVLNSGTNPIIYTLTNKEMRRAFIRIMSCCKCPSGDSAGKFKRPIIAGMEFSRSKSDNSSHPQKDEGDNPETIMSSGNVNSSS
- Assay Remarks: S1P1 CRE-bla CHOK1 reporter assay, inhibition of Forskolin induced cAMP
- Type: cell-based
- Condition Notes: agonist activity range; S1P1 CRE-bla CHOK1 cells, 2 μM Forskolin; read-out: S1P1 ACTIVITY
- Source text: Generation of S1P1-Mediated Inhibition of cAMP Reporter Assay A mammalian expression plasmid containing S1P1/EDG1 cloned into pcDNA3.1 was purchased from Missouri S&T cDNA Resource Centre. […] S1P1/pcDNA3.1 was transfected into the CRE-bla CHO K1 (Invitrogen) cell line, and stable single cell clones were selected using standard techniques. S1P1 CRE-Bla CHOK1 Reporter Assay—Characterization of S1P1 Agonists […]
pEC50: −log10 of the molar value. Where a name gives a salt, the structure may show the parent alone.
Readings of pEC50 for the listed compounds

Reference set (5 entries):
Q: Requested read-out pEC50, target or system S1P1/EDG1 (Homo sapiens), entry CC(C)Oc1ccc(-c2nnc(-c3cccc4c3CCC[C@@H]4NCCS(C)(=O)=O)s2)cc1C#N
Result: 8.30 to 9.30

Q: Also check CNC(=O)CCS(=O)(=O)N[C@H]1CCCc2c(-c3nnc(-c4ccc(OC(C)C)c(C#N)c4)s3)cccc21
Result: 9.30 to 10.30

Q: Also check COC(=O)CC1CCN(C(=O)N[C@@H]2CCc3c(-c4cnc(-c5ccc(OC(C)C)c(C#N)c5)s4)cccc32)CC1
Result: 8.30 to 9.30

Q: Also check CC(C)Oc1ccc(-c2ncc(-c3cccc4c3CC[C@H]4NC(=O)N3CCCC3)s2)cc1C#N
Result: 9.30 to 10.30

Q: Also check CC(C)Oc1ccc(-c2ncc(-c3cccc4c3CC[C@H]4NC(=O)N3CCOCC3)s2)cc1C#N
Result: 9.30 to 10.30

---
Q: Requested read-out pEC50, target or system S1P1/EDG1 (Homo sapiens), entry CC(C)Oc1ccc(-c2nnc(-c3cccc4c3CC[C@H]4NCC(=O)N(C)C)s2)cc1C#N [Compound 22, hydrochloride]
Result: 9.30 to 10.30

Q: Also check CC(C)Oc1ccc(-c2nnc(-c3cccc4c3CCC4NS(=O)(=O)CCN3CC[C@@H](O)C3)s2)cc1C#N (stereo in doubt) [Compound 37]
Result: 8.30 to 9.30

Q: Also check CNCC(=O)N[C@H]1CCCc2c(-c3nnc(-c4ccc(OC(C)C)c(C#N)c4)s3)cccc21
Result: 9.30 to 10.30

Q: Also check COC(=O)CS(=O)(=O)N[C@H]1CCc2c(-c3nsc(-c4ccc(OC(C)C)c(C#N)c4)n3)cccc21
Result: 9.30 to 10.30

Q: Also check CC(C)Oc1ccc(-c2nnc(-c3cccc4c3CCC[C@@H]4NCc3ccncc3)s2)cc1C#N
Result: 8.30 to 9.30

Q: Also check CC(C)Oc1ccc(-c2nnc(-c3cccc4c3CC[C@H]4NS(N)(=O)=O)s2)cc1C#N
Result: > 10.30

Q: Also check CC(C)Oc1ccc(-c2nnc(-c3cccc4c3CCC[C@H]4NC(=O)CN)s2)cc1C#N
Result: 8.30 to 9.30

Q: Also check CC(C)Oc1ccc(-c2nsc(-c3cccc4c3CC[C@@H]4NS(N)(=O)=O)n2)cc1C#N
Result: 9.30 to 10.30

Q: Also check CC(C)Oc1ccc(-c2nnc(-c3cccc4c3CC[C@H]4NC(=O)N3CC(O)C3)s2)cc1C#N
Result: 9.30 to 10.30

Q: Also check CC(C)Oc1ccc(-c2nsc(-c3cccc4c3CC[C@@H]4N)n2)cc1C#N [Compound 308, hydrochloride]
Result: 8.30 to 9.30
